# assay-text: LAP4-GFP expression modulators in yeast, confirmation, cell-based, cherry picks, flow cytometry, mother/daughter gates (AID 2271);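 further: ratio of sample to DMSO plate mean so 100% equals DMSO level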
# run-parameters: S. cerevisiae LAP4-GFP strain, 3 h, measured here: daughter cell gate response, at 10 µM, stronger effect = higher value, 100 means same as DMSO control
Documented GFP response relative to DMSO across a set of compounds
Please reply with the bare figure in % and do not write the unit itself.

The examples below pair each entry with its known result.
O=C(NCCN1CCOCC1)c1ccc(CS(=O)(=O)Cc2ccccc2F)o1	99.7
CCCc1[nH]nc2c1C(c1ccc(O)cc1OCC)C(C#N)=C(N)O2 (stereo unspecified)	99
Cc1cc(N2CCCCC2)n2ncc(-c3ccccc3)c2n1	106
COc1cc(-c2noc(-c3cccc(Cl)c3)n2)cc(OC)c1OC	88.2
Cc1ccc(N2C(=O)C3C4C=CC(CNC(=S)Nc5cccc(Cl)c5)(O4)C3C2=O)cc1 (stereo unspecified)	99.1

Okay, next one:
For "N#Cc1nccnc1S(=O)(=O)c1cccs1" the compound record lists GFP response relative to DMSO as 149

====

# Tested on: anti-desmoglein-3 scFv antibody binding to human DSG3
# assay-text: inhibitors of anti-DSG3 scFv binding to DSG3, pilot screen, biochemical, validation compound set, bead-based, flow cytometry (AID 588368);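 further: signal is the median channel fluorescence of bead-bound GFP antibody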
# run-parameters: Protein G beads, DSG3-Fc, scFv-GFP binding, at 10 µM, stronger effect = lower value
assay-endpoint: binding (% of control) (%)
The reply should contain only the number, in %.

OCCN1CCN(CCCN2c3ccccc3Sc3ccc(Cl)cc32)CC1	115
COc1ccc(OC)c(-n2c(Cn3c(-c4ccccn4)nc4ccccc43)n[nH]c2=S)c1	105
CCc1cccc2c1NC1(CCCC1)CC2C (stereo not drawn)	97.6
CCn1c2ccccc2c2cc(CC(N)=O)ccc21	103
O=c1cc(Cn2ccnc2)c2cc3c(cc2o1)CCC3	105

Just so you know, measured binding (% of control) for CC(C)C1Cc2[nH]c(=O)c(C(=O)O)cc2CO1 (stereo not drawn) came out at 94.2

According to the records, this molecule "N=C(N)c1ccc(OCCCCCOc2ccc(C(=N)N)cc2)cc1" displays binding (% of control) of 112

====

# assay-text: AGP1-GFP expression modulators, hit retest, confirmation, cell-based, flow cytometry, S. cerevisiae, cherry picks (AID 2273);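 further: median GFP channel fluorescence over the whole cell population gate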
# run-parameters: S. cerevisiae AGP1-GFP strain, 3 h, at 10 µM
Calls of active or inactive are those of the source.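 The calls were made as follows: active = GFP response above 150% of the DMSO level; inconclusive = fewer than 70 events counted for a yeast strain; inactive = the rest.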
assay-endpoint: GFP response, % of DMSO

Cc1ccc2[nH]cc(/C=C/c3cc[n+](C)cc3)c2c1	116% (inactive)

Next up:
// sample "COc1cc(NC(=O)c2c(OC)cccc2OC)ccc1NC(=O)c1cc2ccccc2o1" , its GFP response, % of DMSO was 95.4% (inactive)

====

# System: anti-desmoglein-3 scFv antibody binding to human DSG3
# assay-text: inhibitors of anti-DSG3 scFv binding to DSG3, pilot screen, biochemical, validation compound set, bead-based, flow cytometry (AID 588368);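 further: signal is the median channel fluorescence of bead-bound GFP antibody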
# run-parameters: Protein G beads, DSG3-Fc, scFv-GFP binding, at 10 µM, stronger effect = lower value
assay-endpoint: binding (% of control) (%)
Field: numeric (%). Do not append units.

Worked cases, binding (% of control) given:
COC1=CC(=O)CC(C)C12Oc1c(Cl)c(OC)cc(OC)c1C2=O (stereo not drawn)	95.9
O=C(O)c1cc(-c2ccc3c(c2)OCO3)nc2ccc(Br)cc12	105
CC(O)Cn1cnc2c1c(=O)n(C)c(=O)n2C (stereo not drawn)	101

Let me check: "CCCCC/C=C\C[C@H](O)/C=C/c1cccc(C[C@H](O)CCCCO)n1" , system anti-desmoglein-3 scFv antibody binding to human DSG3, measured binding (% of control) is 103

Readout binding (% of control) for "COc1ccc(/C=C2\CCn3c2nc2cc(C(=O)O)ccc2c3=O)cc1OC" , test system anti-desmoglein-3 scFv antibody binding to human DSG3, was 102

Reported binding (% of control) (anti-desmoglein-3 scFv antibody binding to human DSG3) for entry "Cc1[nH]c2ccccc2c1C(=O)CN1CCCC1" is 110

====

# assay-text: yeast V-ATPase proton transport modulators, S. cerevisiae, pHLuorin, HTS validation (AID 504600);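 further: plate controls were DMSO for no effect and reference compound for full effect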
# run-parameters: S. cerevisiae pHLuorin cytosolic pH, at 10 µM
Active and inactive are the calls of the source. No stated cut-off is given here; in the data, active means response above about 15%; inactive means the rest.
Hi there, use one of these labels in your reply, thanks! Y = active, N = inactive

Known results for compounds:
CN1CCc2cccc3c2[C@H]1Cc1ccc(O)c(O)c1-3	N
CC[C@]1(O)C[C@@H]2CN(CCc3c([nH]c4ccccc34)[C@@](C(=O)OC)(c3cc4c(cc3OC)N(C)[C@H]3[C@@](O)(C(=O)OC)[C@H](OC(C)=O)[C@]5(CC)C=CCN6CC[C@]43[C@@H]65)C2)C1	N
O=c1oc2c(CN3CCN(CCO)CC3)c(O)ccc2cc1-c1ccccn1	N

GET /call?item= "CCCN(CCC)S(=O)(=O)c1ccc(C(=O)O)cc1" returns the recorded outcome of this test.
N

What is the recorded call for this compound in the test? "COc1ccc(CCNC(=O)c2c(O)c3c([nH]c2=O)CCCC3)cc1"
N

Outcome logged for "C(=C/c1nccc2c1[nH]c1ccccc12)/c1ccc2c(c1)OCO2" in this assay:
N

Assay outcome for "CCN(CC)CCNC(=O)c1cc(S(C)(=O)=O)ccc1OC" : what was it?
N

Short answer needed: outcome of this test for "COC(=O)c1ccc(CC(=O)c2ccc(O)cc2O)o1" ?
Y

Which outcome was entered for the compound "O=C(c1ccccc1)N1CCN(C(=O)c2ccccc2)CC1" in this test?
N

For CC(=O)N1N=C(c2cccs2)CC1c1ccc(C)o1 (stereo not given) , what call appears in the results of this test?
N

====

# assay-text: RPL19A-GFP modulators, yeast TOR pathway, confirmation, cell-based, S. cerevisiae, flow cytometry, cherry picks, mother/daughter gates (AID 2270)
# run-parameters: S. cerevisiae RPL19A-GFP strain, 3 h, measured here: daughter cell gate, at 10 µM, stronger effect = lower value, 100 = same GFP as DMSO wells
Recorded GFP response vs DMSO, one value per entry.
Answer with the figure and its unit, nothing else.

CCc1nnc(NC(=O)c2nc(S(=O)(=O)Cc3ccccc3)ncc2Cl)s1	95.9%
COc1ccc(CN2CCN(c3ncccn3)CC2)c(C)c1C	98.1%
Nc1ccc(C(=O)N/N=C/c2ccccc2)cc1	102%
Cc1cccc(CS(=O)(=O)c2ncc(Cl)c(C(=O)NCc3ccccc3)n2)c1	96.4%
CN(C)S(=O)(=O)c1cc(NC(=O)CN2CCOCC2)ccc1Cl	97.3%
O=S(=O)(Nc1cccc(-c2ccc(N3CCCCCC3)nn2)c1)c1ccccc1F	99.3%

Quick note, GFP response vs DMSO for COc1ccccc1N1C(=O)CC(Sc2ncccc2C(=O)O)C1=O (stereo unspecified) landed at 98.4%

For reference, reported GFP response vs DMSO for "O=C(/C(=C/O)N=Nc1ccc(Cl)cc1)c1ccncc1" stands at 99.3%

====

GFP response vs DMSO: recorded values
# assay-text: modulators of MEP2-GFP levels in yeast, confirmation, S. cerevisiae, flow cytometry GFP, cherry picks (AID 2272);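 further: ratio of well signal to plate DMSO mean so 100% equals DMSO level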
# run-parameters: S. cerevisiae MEP2-GFP strain, 3 h, at 10 µM, stronger effect = higher value
Provide only the numeric value, understood in %.

Would you please look over these solved cases?
C(=N\Nc1nc(-c2cccnc2)nc2ccccc12)/c1ccccc1	102
Cc1ccccc1OCC(=O)NNC(=S)NC(=O)c1ccco1	129
Cc1nnc(NC(=O)c2csc3c2CCC(C)C3)s1 (stereo unspecified)	93.5
COc1cc(C2CC(c3cccnc3)=NN2c2ccc(F)cc2)cc(OC)c1OC (stereo unspecified)	101

Notebook: "Cc1ccc(C(=O)Oc2oc(-c3ccco3)nc2C=Nc2ccc(Cl)cc2)cc1" , GFP response vs DMSO read as 110

Please fill in: GFP response vs DMSO reported for "O=C(Nc1nnc(-c2ccc(F)cc2)o1)c1cccc([N+](=O)[O-])c1" = 110

====

# assay-text: modulators of CIT2-GFP expression in yeast, confirmation, flow cytometry, second cherry pick, single plex (AID 2624);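 further: median green fluorescence per well over all gated yeast cells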
# run-parameters: S. cerevisiae CIT2-GFP strain, 3 h, at 10 µM, stronger effect = higher value, DMSO control wells read 100%
The other results are listed elsewhere or left out.
assay-endpoint: GFP response vs DMSO (%)
# value in %; strip the unit string

CCOC(=O)c1cnc(SCC(=O)NCc2ccco2)nc1N	111
CCC(=C/c1sc2ccc3ccccc3c2[n+]1C)/C=C1\Sc2ccc3ccccc3c2N1C	303
CC(Oc1ccc2ccccc2c1)C(=O)NNC(=S)NC(=O)c1ccco1 (configuration not stated)	187
CCN1/C(=C/c2ccc3ccc(C)cc3[n+]2CC)Sc2ccccc21	1630
O=C(Nc1nnc(-c2ccc(Cl)cc2)o1)c1ccccc1Br	133
CCCCNc1c(-c2cccc(Sc3ccc(OC)cc3)c2)nc2ccccn12	120

Value of GFP response vs DMSO reported for the compound "COC(=O)C[n+]1cccc2ccccc21" is 118

Consider "CC(C)[C@@H]1COC(c2cccc(C3=N[C@H](C(C)C)CO3)c2)=N1" . Its measured GFP response vs DMSO is 97.2

Quick note, GFP response vs DMSO for "Cc1cc(C)c2nc3nc(C)cc(C)c3c(N)c2c1" landed at 93.9

// provenance: PubChem BioAssay
